Hello, the source for this data is BindingDB's records for doi:10.1021/acs.jmedchem.7b01449, in case you need it.

# Test system: Receptor-interacting serine/threonine-protein kinase 1 (Mus musculus, UniProt Q60855)
# Sequence (Q60855 whole entry): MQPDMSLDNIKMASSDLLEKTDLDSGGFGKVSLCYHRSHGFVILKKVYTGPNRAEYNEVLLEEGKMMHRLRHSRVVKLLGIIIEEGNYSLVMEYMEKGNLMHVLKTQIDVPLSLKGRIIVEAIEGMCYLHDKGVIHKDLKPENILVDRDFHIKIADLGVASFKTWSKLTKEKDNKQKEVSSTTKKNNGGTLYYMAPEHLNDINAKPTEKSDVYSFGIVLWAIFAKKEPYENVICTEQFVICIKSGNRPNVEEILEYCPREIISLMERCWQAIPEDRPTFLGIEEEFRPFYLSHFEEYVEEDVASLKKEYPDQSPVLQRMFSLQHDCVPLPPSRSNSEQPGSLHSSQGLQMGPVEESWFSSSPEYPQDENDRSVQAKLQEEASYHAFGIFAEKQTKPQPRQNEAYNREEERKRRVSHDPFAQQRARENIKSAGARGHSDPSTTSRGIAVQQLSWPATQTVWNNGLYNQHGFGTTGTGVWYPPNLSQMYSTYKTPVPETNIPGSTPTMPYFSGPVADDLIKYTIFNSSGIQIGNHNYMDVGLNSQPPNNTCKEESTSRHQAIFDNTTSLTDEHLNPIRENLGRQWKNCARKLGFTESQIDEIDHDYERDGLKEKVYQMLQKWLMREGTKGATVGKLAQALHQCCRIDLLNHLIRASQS
# Method description: ChEBML_1697666
# Text: Inhibition of RIPK1 in mouse L929sA cells transfected with human Fas assessed as inhibition in TNF-induced necroptosis pretreated for 24 hrs followed by TNF and zVAD.fmk addition measured after 3 hrs by Hoechst 33342/propidium iodide staining-based assay
Overview of reported IC50 across a group of compounds:

Quick one: IC50 for `Cc1cc(Nc2nc(Nc3ccc(NC(=O)C4CC4)cc3)nc(N3CCCCC3)n2)n[nH]1` ? > 3000 nM

With those in mind, consider the next compound.
Quick one: IC50 for `Cc1cc(Nc2cc(N3CCCCC3)nc(Nc3ccc(NC(=O)C4CCCCC4)cc3)n2)n[nH]1` ? > 3000 nM
